Recorded values, source PubChem BioAssay.

Biological target: Follistatin-related protein 3 (Homo sapiens) (UniProt O95633)
Sequence (O95633 whole entry, looked up): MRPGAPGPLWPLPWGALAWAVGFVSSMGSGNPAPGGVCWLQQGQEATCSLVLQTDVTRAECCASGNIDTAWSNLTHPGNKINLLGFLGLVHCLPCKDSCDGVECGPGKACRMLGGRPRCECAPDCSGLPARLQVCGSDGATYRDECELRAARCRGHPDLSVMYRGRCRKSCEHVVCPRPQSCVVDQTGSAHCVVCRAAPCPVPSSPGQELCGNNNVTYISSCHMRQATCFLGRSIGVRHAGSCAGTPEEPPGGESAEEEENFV
Test: compounds binding follistatin-related protein 3 – biochemical, small-molecule microarray, 635 nm fluorescence, primary screen (AID 1105);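 also: score merges emission near 667 nm and signal to noise per printed spot across three slides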
Conditions: FSTL3 binding, higher = more signal
composite z-score values for the compounds below.

Below, 2 compounds whose answers are already recorded.
[
  {
    "mol-smiles": "O=C1[C@H]2C=C(I)[C@H](C[C@@H]2c2ccccc2)[C@@]12CO2",
    "result": -0.461
  },
  {
    "mol-smiles": "C=CCN1C(=O)[C@@]2(O[C@@H](CCn3cc([C@H](O)c4ccccc4)nn3)[C@H]([Si](C)(C)c3ccc(OC)cc3)[C@H]2C)c2cc(N3C(=O)c4cccc5cccc3c45)ccc21",
    "result": -1.06
  }
]

Now examine the next entry.
Please fill in: composite z-score reported for CO[C@H]1O[C@H](CO)[C@@H](OC(=O)Nc2ccc3c(c2)OCO3)[C@H](OC(=O)Nc2ccccc2-c2ccccc2)[C@H]1OC(=O)Nc1ccccc1-c1ccccc1 = 0.398

====

Assay: JC-1 mitochondrial signal, unstimulated adipocytes – cell-based, JC-1 fluorescence, 3T3-L1 adipocytes, 24 h, 100 nL compound, profiling panel (AID 1168); also: test concentration not given here
Details: JC-1 mitochondrial fluorescence, higher = more signal, called active from +8 up or from −8 down
z-score values for the molecules below.
Write no unit; give the number alone.

[
  {
    "molecule": "CC(C)=CCCC(C)=CC(O)C1C=CC2C(=O)NC(=O)C2N1Nc1ccccn1 (centres undefined)",
    "readout-kind": "z-score",
    "numeric-readout": -0.503
  },
  {
    "molecule": "CCCCC(O)C1C=CC2C(=O)N(c3ccccc3)C(=O)C2N1Nc1ccc([N+](=O)[O-])cc1 (centres undefined)",
    "readout-kind": "z-score",
    "numeric-readout": -1.08
  },
  {
    "molecule": "COC(=O)[C@]1(Cc2ccccc2)N=C(c2ccc(OCCCO)cc2)O[C@@H]1c1ccccc1CN=[N+]=[N-]",
    "readout-kind": "z-score",
    "numeric-readout": -0.876
  }
]

Now examine the next entry.
Please fill in: z-score reported for COCCOC(=O)N1C(=O)[C@@]2(c3cc(C#CCC(C(=O)OC)C(=O)OC)ccc31)[C@H](C(=O)Nc1nc3ccccc3s1)[C@H]1C(=O)O[C@H](c3ccccc3)[C@H](c3ccccc3)N1[C@@H]2c1ccc(O)cc1 = -2.24

====

Target: Torsin-1A (Homo sapiens)
Assay: torsin A mutant lysate binding on microarrays – cell lysate, small-molecule microarray, COS7 lysate, 635/667 nm fluorescence, primary screen (AID 1150);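 also: score pools 667 nm emission and signal to noise measuring lysate protein binding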
Details: COS7 hTOR1A mutant lysate, 635 nm fluorescence, higher = more signal
Binning scheme for composite z-score: class A = under 0.4, class B = from 0.4 up to 0.7, class C = 0.7 and over

Please review the following examples before continuing.
[
  {
    "compound": "COc1ccc(C(O)C2C=CC3C(=O)N(c4ccccc4)C(=O)C3N2Nc2ccc(C#N)cc2)cc1OCc1ccccc1 (stereo not given)",
    "class-label": "class C"
  },
  {
    "compound": "CCCCCCc1nc(-c2ccc(-c3ccc(Cl)c(Cl)c3)o2)cc2c1[Si](C(C)C)(C(C)C)OC2",
    "class-label": "class A"
  }
]

Prompt: Pick a category. Item: CC(C)(C)N1CC=CC23O[C@@H]4C=CCCOC(=O)C4[C@H]2C(=O)N(CCCCCCO)[C@@H]3C1=O (stereo not given in full)
Response: class A

Prompt: Pick a category. Item: C=C(CCCC)/C(=C/C[C@H](OC(=O)c1ccncc1)c1ccccc1OCCO)c1cc(C(=O)OC)ccc1OC
Response: class A

Prompt: Pick a category. Item: O=C1O[C@@H](c2ccccc2)[C@@H](c2ccccc2)N2[C@@H](c3ccccc3OCCO)[C@]3(C(=O)Nc4ccc(C#CCCO)cc43)[C@@H](C(=O)NC[C@H](O)c3ccccc3)[C@H]12
Response: class C

Prompt: Pick a category. Item: C=CC[C@]1(C(=O)NCC(O)CO)COC(c2ccc(OCCCO)cc2)=N1 (stereo not given in full)
Response: class C

Prompt: Pick a category. Item: CCOC(=O)C[C@H]1[C@H](OC(=O)Cc2ccc3c(c2)OCO3)[C@@H](NC(=O)c2ccc3ccccc3n2)c2cc(OCCCO)ccc2N1C(=O)Cc1ccc(OC)cc1
Response: class C

Prompt: Pick a category. Item: O=C1N(CCS(=O)(=O)c2ccccc2)c2ccccc2C[C@]12N=C(c1ccc(OCCCO)cc1)O[C@@H]2c1ccccc1
Response: class C

Prompt: Pick a category. Item: COc1ccc(C(=O)Nc2ccc3c(c2)[C@@]2(O[C@H](CCO)[C@@H]([Si](C)(C)c4ccc(OC)cc4)[C@@H]2C)C(=O)N3Cc2ccccc2)cc1
Response: class B

Prompt: Pick a category. Item: CC(C)(C)OC(=O)CC[C@]1(C(=O)NCC(O)CO)N=C(c2ccc(OCCCO)cc2)O[C@H]1c1ccccc1N=[N+]=[N-] (stereo not given in full)
Response: class B

Prompt: Pick a category. Item: CCCC[C@H]1OB(O)C[C@H]2C1=C(COc1ccccc1)C[C@H]1C(=O)C=CC(=O)[C@H]12
Response: class A

Prompt: Pick a category. Item: COCCOC(=O)N1C(=O)[C@@]2(c3ccccc31)[C@H](C(=O)N1CCN(c3ncccn3)CC1)[C@H]1C(=O)O[C@H](c3ccccc3)[C@H](c3ccccc3)N1[C@@H]2c1ccccc1OCCO
Response: class A

Prompt: Pick a category. Item: COCCOC(=O)N1C(=O)[C@@]2(c3cc(C#CCCO)ccc31)[C@H](c1ccc(OCCO)cc1)N1[C@H](c3ccccc3)[C@H](c3ccccc3)OC(=O)[C@H]1[C@@H]2C(=O)N1CCCCCCC1
Response: class C

====

z-score values for the molecules below.
Assay: compound effects on multiple myeloma cell viability – MM1S, calcein-AM fluorescence, 48 h, basal, profiling panel (AID 1165);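 also: viability of MM1S multiple myeloma cells under basal unstimulated conditions; test concentration not given here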
Details: higher = more signal
Write no unit; give the number alone.

[
  {
    "molecule": "COc1ccc(C(O)C2C=CC3C(=O)NC(=O)C3N2Nc2ccc(Cl)cc2Cl)c2ccccc12 (centres undefined)",
    "z-score": -3.8
  },
  {
    "molecule": "O=C(N1CCOCC1)[C@@]1(Cc2ccccc2)COC(c2ccc(OCCCO)cc2)=N1",
    "z-score": -1.6
  },
  {
    "molecule": "CCCCC(=C=CC[C@H](O)c1ccc(CO)o1)CCO",
    "z-score": -0.562
  },
  {
    "molecule": "Cc1ccc(F)cc1S(=O)(=O)N[C@H]1CCN(Cc2ccc(OC(C)C)cc2)C1",
    "z-score": -1.4
  },
  {
    "molecule": "CCOC(=O)C[C@H]1[C@H](OC(=O)Cc2ccc3c(c2)OCO3)[C@@H](NC(=O)c2ccc3ccccc3n2)c2cc(OCCCO)ccc2N1C(=O)Cc1ccc(OC)cc1",
    "z-score": 0.406
  }
]

Please fill in: z-score reported for O=C1O[C@H](c2ccccc2)[C@H](c2ccccc2)N2[C@H]1[C@@H](C(=O)O)[C@]1(C(=O)Nc3ccc(C#CCCO)cc31)[C@H]2c1ccc(OCCO)cc1 = -0.963

Please fill in: z-score reported for C=CCC(OC(C)=O)[C@@H]1[C@@H](N(Cc2cc3ccccc3o2)C(=O)c2cccc3ccccc23)c2cc(OCCCO)ccc2N1C(=O)c1ccc2ccccc2n1 (some centres undefined) = -1.14

====

Assay: JC-1 mitochondrial signal, unstimulated myeloma cells – cell-based, JC-1 fluorescence, RPMI8226, 24 h, 100 nL compound, profiling panel (AID 1169); also: test concentration not given here
Settings: JC-1 mitochondrial potential fluorescence, higher = more signal
z-score values for the compounds below.
Write no unit; give the number alone.

Please fill in: z-score reported for CC(C)C(=C=CC[C@H](O)c1ccccc1OCCO)C[C@H](O)c1cc(Cl)cc(Cl)c1O = -0.788

====

z-score values for the compounds below.
Experiment: JC-1 mitochondrial signal, unstimulated myeloma cells – cell-based, JC-1 fluorescence, RPMI8226, 24 h, 100 nL compound, profiling panel (AID 1169); also: test concentration not given here
Details: JC-1 mitochondrial potential fluorescence, higher = more signal
Write no unit; give the number alone.

Below, 2 compounds whose answers are already recorded.
[
  {
    "mol-smiles": "CCOC(=O)C[C@H]1[C@H](OC(=O)c2ccccc2-c2ccccc2)[C@@H](NC(=O)c2ccc3ccccc3c2)c2cc(OCCCO)ccc2N1C(=O)Cc1ccc(OC)cc1",
    "z-score": -0.49
  },
  {
    "mol-smiles": "C=CCOC(=O)[C@@H]1[C@H]2C(=O)O[C@H](c3ccccc3)[C@H](c3ccccc3)N2[C@H](c2ccc(OCCOC(=O)[C@H]3C[C@H]4C(=O)N[C@@H](CCCCN(C)C)C(=O)N4[C@H]3c3ccc(O)cc3)cc2)[C@@]12C(=O)Nc1ccc(I)cc12",
    "z-score": -0.35
  }
]

Now examine the next entry.
Please fill in: z-score reported for O=C1O[C@H](c2ccccc2)[C@H](c2ccccc2)N2[C@H]1[C@@H](C(=O)N1CCN(c3ncccn3)CC1)[C@]1(C(=O)Nc3ccc(C#CCCO)cc31)[C@H]2c1ccc(O)cc1 = -0.443
